Assay: ATG_M_19_CIS: Attagene CIS-FACTORIAL HepG2 Assay for M19 Transcription Factor (Internal Marker) (AID 2282939)
Conditions: HepG2 Attagene CIS-FACTORIAL M19 internal marker reporter; actives raise or lower the signal
The source made the active and inactive calls. The calls were made as follows: active = hit-call score of the fitted dose curve at least 0.9, where 1 is the maximum; inactive = score below 0.9.
Just give me one of these, please: active, inactive

Incoming: So what was the verdict on N#Cc1ccc(C(c2ccc(C#N)cc2)n2cncn2)cc1 in this test?
Outgoing: inactive

Incoming: So what was the verdict on CCOC(=O)/C=C\C(=O)OCC in this test?
Outgoing: inactive

Incoming: So what was the verdict on O=c1c(O)c(-c2ccc(O)cc2O)oc2cc(O)cc(O)c12 in this test?
Outgoing: inactive

Incoming: So what was the verdict on CCN1CCCC1=O in this test?
Outgoing: inactive

Incoming: So what was the verdict on C=CC(=O)NCOCCCC in this test?
Outgoing: inactive

Incoming: So what was the verdict on Nc1ccc(C(=O)O)cc1 in this test?
Outgoing: inactive

Incoming: So what was the verdict on CCOC(=O)c1ccccc1C in this test?
Outgoing: inactive

Incoming: So what was the verdict on CC1=NN(c2ccc(S(=O)(=O)O)cc2)C(=O)C1N=Nc1ccccc1 (configuration not stated) in this test?
Outgoing: inactive

Incoming: So what was the verdict on Cc1ccc(C)c(OCCCC(C)(C)C(=O)O)c1 in this test?
Outgoing: inactive

Incoming: So what was the verdict on CC1(C)C(=O)N(CO)C(=O)N1CO in this test?
Outgoing: inactive

Incoming: So what was the verdict on Nc1ccc(O)c([N+](=O)[O-])c1 in this test?
Outgoing: inactive

Incoming: So what was the verdict on C=CC(=O)O[C@H]1C[C@@H]2CC[C@@]1(C)C2(C)C in this test?
Outgoing: active
